# experimentalSystem: p70S6K (Homo sapiens, UniProt P23443, T412E)
# Construct: human p70S6 kinase domain residues 1-421, containing a T412E mutation; made in house
# Sequence (P23443 1-421 T412E): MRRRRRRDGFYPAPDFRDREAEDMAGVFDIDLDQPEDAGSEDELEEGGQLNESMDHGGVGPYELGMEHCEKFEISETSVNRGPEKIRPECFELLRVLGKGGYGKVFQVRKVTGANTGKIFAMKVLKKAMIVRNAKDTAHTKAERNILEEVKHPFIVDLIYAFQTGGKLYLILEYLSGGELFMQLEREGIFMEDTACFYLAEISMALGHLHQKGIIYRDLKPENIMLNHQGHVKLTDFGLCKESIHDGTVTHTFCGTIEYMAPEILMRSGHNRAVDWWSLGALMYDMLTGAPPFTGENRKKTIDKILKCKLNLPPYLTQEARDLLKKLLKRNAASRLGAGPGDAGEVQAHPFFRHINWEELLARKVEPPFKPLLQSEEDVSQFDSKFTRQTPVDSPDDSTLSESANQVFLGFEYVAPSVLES
# assayNotes: p70S6 Kinase Assay (Luciferase-Coupled Chemiluminescent Kinase assay, LCCA)
# Format: biochemical
# statedConditions: human p70S6 kinase domain residues 1-421, T412E; 5 μM ATP; read-out: p70S6K IC50
Reported IC50 values follow for various compounds

Query :: Reported IC50, compound CC(C)Oc1nc(N)nc(N[C@@H](C)C(=O)Nc2cccc(C(F)(F)F)c2)c1C#N : ____
Result :: > 2000 nM

Query :: # repeat for CSc1nc(N)nc(N[C@@H](C)C(=O)Nc2cccc(N)c2)c1C#N
Result :: > 2000 nM

Query :: # repeat for CSc1nc(N)nc(N(C)CC(=O)Nc2cccc(C(F)(F)F)c2)c1C#N
Result :: > 2000 nM

Query :: # repeat for CCOc1nc(N)nc(N[C@@H](Cc2ccc(O)cc2)C(=O)Nc2cccc(C(F)(F)F)c2)c1C#N
Result :: > 2000 nM

Query :: # repeat for CSc1nc(N)nc(N[C@H](CCCCN)C(=O)Nc2cccc(C(F)(F)F)c2)c1C#N
Result :: > 2000 nM

Query :: # repeat for CCOc1nc(N)nc(N[C@@H](C)C(=O)Nc2cc(OCCN(C)C)cc(C(F)(F)F)c2)c1C#N
Result :: > 2000 nM

Query :: # repeat for CCOc1nc(N)nc(N[C@@H](CCCNC(N)=O)C(=O)Nc2cccc(C(F)(F)F)c2)c1C#N
Result :: > 2000 nM

Query :: # repeat for CCOc1nc(N)nc(N[C@@H](CN2CCOCC2)C(=O)Nc2cccc(C(F)(F)F)c2)c1C#N
Result :: > 2000 nM

Query :: # repeat for N#Cc1c(SCC(=O)Nc2cccc(C(F)(F)F)c2)nc(N)nc1N1CCOCC1
Result :: > 2000 nM

Query :: # repeat for CSc1nc(N)nc(N[C@@H](CCCCN(C)C)C(=O)Nc2cccc(C(F)(F)F)c2)c1C#N
Result :: > 2000 nM

Query :: # repeat for CCOc1nc(N)nc(N[C@@H](C)C(=O)Nc2cc(C(=O)NCCCN3CCCC3)cc(C(F)(F)F)c2)c1C#N
Result :: > 2000 nM

----------
# experimentalSystem: p70S6K (Homo sapiens, UniProt P23443, T412E)
# Construct: human p70S6 kinase domain residues 1-421, containing a T412E mutation; made in house
# assayNotes: p70S6 Kinase Assay (Luciferase-Coupled Chemiluminescent Kinase assay, LCCA)
# Assay type: biochemical
# statedConditions: human p70S6 kinase domain residues 1-421, T412E; 5 μM ATP; read-out: p70S6K IC50
recordedEndpoint: IC50

CSc1nc(N)nc(N(C)CC(=O)Nc2cccc(C)c2)c1C#N    > 2000 nM

Query :: Reported IC50, molecule CSc1nc(N)nc(N(C)[C@@H](C)C(=O)Nc2cccc(OC(F)(F)F)c2)c1C#N : ____
Result :: < 50 nM

Query :: # repeat for COc1ccc(C(F)(F)F)cc1NC(=O)CSc1nc(N)nc(SC)c1C#N
Result :: 500 to 2000 nM

Query :: # repeat for CCOc1nc(N)nc(N[C@@H](CCC(=O)O)C(=O)Nc2cccc(C(F)(F)F)c2)c1C#N
Result :: > 2000 nM

----------
Reported pIC50 values follow for various compounds
# experimentalSystem: p70S6K (Homo sapiens, UniProt P23443, T412E)
# Construct: human p70S6 kinase domain residues 1-421, containing a T412E mutation; made in house
# assayNotes: p70S6 Kinase Assay (Luciferase-Coupled Chemiluminescent Kinase assay, LCCA)
# Assay type: biochemical
# statedConditions: p70S6K IC50, human p70S6 kinase domain residues 1-421, T412E; 5 μM ATP
pIC50: −log10 of the molar value.

CSc1nc(N)nc(O[C@H](C)C(=O)Nc2cccc(C(F)(F)F)c2)c1C#N [Example 68]    5.70 to 6.30

Here's the next entry for you.
Query :: Reported pIC50, compound CSc1nc(N)nc(O[C@@H](C)C(=O)Nc2cccc(C(F)(F)F)c2)c1C#N [Example 42] : ____
Result :: 6.30 to 7.30

----------
# experimentalSystem: p70S6K (Homo sapiens, UniProt P23443, T412E)
# Construct: human p70S6 kinase domain residues 1-421, containing a T412E mutation; made in house
# assayNotes: p70S6 Kinase Assay (Luciferase-Coupled Chemiluminescent Kinase assay, LCCA)
# Format: biochemical
# statedConditions: human p70S6 kinase domain residues 1-421, T412E; 5 μM ATP; read-out: p70S6K IC50
pIC50: −log10 of the molar value.
recordedEndpoint: pIC50

In the examples that follow, each entry is paired with its recorded pIC50.
CCOc1nc(N)nc(N[C@@H](C)C(=O)Nc2cc(C(=O)N3CCN(C)CC3)cc(C(F)(F)F)c2)c1C#N [Example 157]    < 5.70
CSc1nc(N)nc(N[C@@H](C)C(=O)Nc2cc(OCCN(C)C)cc(C(F)(F)F)c2)c1C#N [Example 137]    > 7.30
CCOc1nc(N)nc(NNC(=O)Nc2cccc(C(F)(F)F)c2)c1C#N [Example 127]    < 5.70
CSc1nc(N)nc(N[C@H](C)C(=O)Nc2cccc(C(F)(F)F)c2)c1C#N [Example 83]    < 5.70
CSc1nc(N)nc(N[C@@H](C)C(=O)Nc2cc(C(F)(F)F)ccc2Cl)c1C#N [Example 80]    < 5.70
CN(C)c1nc(N)nc(SCC(=O)Nc2cccc(C(F)(F)F)c2)c1C#N [Example 66]    5.70 to 6.30
CCOc1nc(N)nc(N[C@@H](COC(C)=O)C(=O)Nc2cccc(C(F)(F)F)c2)c1C#N [Example 164]    < 5.70

Here's the next entry for you.
Query :: Reported pIC50, compound CSc1nc(N)nc(SCC(=O)Nc2cccc(C(F)(F)F)c2C)c1C#N [Example 53] : ____
Result :: 5.70 to 6.30

----------
Reported pIC50 values follow for various compounds
# experimentalSystem: p70S6K (Homo sapiens, UniProt P23443, T412E)
# Construct: human p70S6 kinase domain residues 1-421, containing a T412E mutation; made in house
# assayNotes: p70S6 Kinase Assay (Luciferase-Coupled Chemiluminescent Kinase assay, LCCA)
# Assay type: biochemical
# statedConditions: human p70S6 kinase domain residues 1-421, T412E; 5 μM ATP; read-out: p70S6K IC50
pIC50: −log10 of the molar value.

In the examples that follow, each entry is paired with its recorded pIC50.
CSc1nc(N)nc(SCC(=O)Nc2nc3ccccc3s2)c1C#N    > 7.30
CSc1nc(N)nc(NCC(=O)Nc2cccc(C(F)(F)F)c2)c1/C=N/O    5.70 to 6.30
CSc1cc(NCC(=O)Nc2cccc(C(F)(F)F)c2)nc(N)n1    > 7.30
CSc1nc(N)nc(N[C@@H](COC(C)=O)C(=O)Nc2cccc(C(F)(F)F)c2)c1C#N    6.30 to 7.30
CCc1nnc(NC(=O)CSc2nc(N)nc(SC)c2C#N)s1    > 7.30
CCOc1nc(N)nc(N(C)[C@@H](C)C(=O)Nc2cccc(C(F)(F)F)c2)c1C#N    < 5.70
CSc1nc(N)nc(N[C@@H](CCCNC(C)=O)C(=O)Nc2cccc(C(F)(F)F)c2)c1C#N    < 5.70
CSc1nc(N)nc(N[C@@H](CCCN2CCOCC2)C(=O)Nc2cccc(C(F)(F)F)c2)c1C#N    6.30 to 7.30
Nc1nc(NCC(=O)Nc2cccc(C(F)(F)F)c2)c2cn[nH]c2n1    5.70 to 6.30
CCOc1nc(N)nc(N[C@@H](COCc2ccccc2)C(=O)Nc2cccc(C(F)(F)F)c2)c1C#N    < 5.70

Query :: Reported pIC50, compound COc1nc(N)nc(N(C)[C@@H](C)C(=O)Nc2cccc(Br)c2)c1C#N : ____
Result :: < 5.70

Query :: # repeat for COCCNCCC[C@H](Nc1nc(N)nc(SC)c1C#N)C(=O)Nc1cccc(C(F)(F)F)c1
Result :: 5.70 to 6.30

Query :: # repeat for CCOc1nc(N)nc(N[C@@H](C)C(=O)Nc2cccc(C(F)(F)F)c2)c1C#N
Result :: < 5.70

Query :: # repeat for CSc1nc(N)nc(N(C)N(C)C(=O)Nc2cccc(C(F)(F)F)c2)c1C#N
Result :: < 5.70

Query :: # repeat for CSc1nc(N)nc(N[C@@H](C)C(=O)Nc2cccc([N+](=O)[O-])c2)c1C#N
Result :: < 5.70

Query :: # repeat for COc1ccc(C(F)(F)F)cc1NC(=O)[C@H](C)Nc1nc(N)nc(SC)c1C#N
Result :: < 5.70

Query :: # repeat for CSc1nc(N)nc(OC(C(=O)Nc2cccc(C(F)(F)F)c2)C(C)C)c1C#N (stereo in doubt)
Result :: < 5.70
